Provide the recorded Percent Effect for the entries that follow.
# System: Plasmodium falciparum
# Measurement notes: Calibr Malaria Delayed Death Assay SOP
# Format: functional, organism-based
# Set-up: scale not given: in the data most compounds retested in dose-response had high values
# Condition label: concentration 4.99e-06 (unit not given; other assays of the set use mol/L)
The whole screen tested about 38,000 compounds, of which about 1,200 (3.2%) showed an effect of 50% or more. The median lay at about -58%. What follows is part of a selection rich in strong results, with near analogues and random picks from the rest.
Give bare numbers, in %.

Worked examples, 3 compounds total:
{"Compound": "COc1ccc2nnc(C(=O)NCC3CCCC3)nc2c1", "Observed result": -78.39}
{"Compound": "CC(NS(C)(=O)=O)c1nc(-c2ccc(Br)cc2)no1 (stereo not drawn)", "Observed result": -124.5}
{"Compound": "CN1CCN(c2ccccc2CNC(=O)CSC(F)(F)F)CC1", "Observed result": 67.15}

# map each compound to its Percent Effect
1. CC(C)[C@H]1CN(S(=O)(=O)c2cccnc2)C[C@@H]1N
2. Cc1ccc(CN2CCC3(CCCN(S(C)(=O)=O)C3)C2)o1 (stereo not drawn)
3. COc1ccc(C[C@@H]2CC[C@H](CN(C)C3CCN(C)CC3)O2)cc1
4. O=C(Nc1cnn(COc2ccc(F)cc2Cl)c1)C1CC1

*A*
-121.7
-70.82
49.48
66.71

* * *

# Tested on: Plasmodium falciparum
# Measurement notes: Calibr Malaria Delayed Death Assay SOP
# Format: functional, organism-based
# Parameters: scale not given: in the data most compounds retested in dose-response had high values
# Condition label: concentration 4.99e-06 (unit not given; other assays of the set use mol/L)
Screen size: about 38,000 compounds; about 1,200 (3.2%) showed an effect of 50% or more. The median lay at about -58%. The full list was thinned out, with strong results kept by preference.
Measured Percent Effect determines class: bottom end (below -60%), midrange (-60% to below -10%), top end (-10% or more)

Example cases with answers are listed next.
{"Compound": "CCC[C@@H]1CN(C(=O)c2ccccc2-c2ccccc2)C[C@H]1N(C)C", "Answer label": "top end"}
{"Compound": "Cc1nc(C2CCCNC2)cc(N(Cc2nccn2C)C2CC2)n1 (stereo unspecified)", "Answer label": "top end"}
{"Compound": "COC(=O)N1CCC(NC(=O)N2CCCC2c2ccsc2)CC1 (stereo unspecified)", "Answer label": "midrange"}
{"Compound": "Cc1cc(NS(=O)(=O)c2cccs2)ccc1-n1cccc1C(=O)O", "Answer label": "midrange"}
{"Compound": "NC(=O)CCC1CCCN(c2ccc3ccc(F)cc3n2)C1 (stereo unspecified)", "Answer label": "bottom end"}

*Q* // return the class label for CNC(=O)C1CCCN1c1nc(C)c2ccccc2n1 (stereo unspecified)
*A* midrange

*Q* Same for N#Cc1ccc(N2CCC3(CCC(=O)N3Cc3ccncc3)CC2)nc1.O=C(O)C(F)(F)F.O=C(O)C(F)(F)F
*A* bottom end

*Q* Same for COCCn1c2c(ccc1=O)CCN(C(=O)NC1CC1)CC2
*A* bottom end

* * *

Provide the recorded Percent Effect for the entries that follow.
# Tested on: Plasmodium falciparum
# Measurement notes: Calibr Malaria Delayed Death Assay SOP
# Type: functional, organism-based
# Set-up: scale not given: in the data most compounds retested in dose-response had high values
# Condition label: concentration 4.99e-06 (unit not given; other assays of the set use mol/L)
Among all 38,000 compounds or so, about 1,200 (3.2%) showed an effect of 50% or more. The median lay at about -58%. The sample holds strong results, similar compounds and a random draw of the others, so the mix is not that of the screen.
Give bare numbers, in %.

{"Compound": "COCC(=O)N1CCC2(CCN(Cc3ccc(C)cc3)CC2)CC1.O=C(O)C(F)(F)F", "Subject of test": "Plasmodium falciparum", "Percent Effect [%]": -23.78}
{"Compound": "O=C(Cc1csc(-c2ccco2)n1)N1CCCC1Cn1cccn1 (centres undefined)", "Subject of test": "Plasmodium falciparum", "Percent Effect [%]": -188.1}
{"Compound": "COc1cccc(OCC(=O)N(C)c2cccnc2)c1", "Subject of test": "Plasmodium falciparum", "Percent Effect [%]": -135.2}

Let us move to another entry and its Percent Effect.
*Q* Fill in the blank: the reported Percent Effect of COc1ccc(CNc2c(C)cnc3c2c(=O)n(C)c(=O)n3C)cc1 is ____.
*A* -41.96

Sourced from ChEMBL document CHEMBL3988442
